B1: CPEB3 Ribozyme (parent)
chain: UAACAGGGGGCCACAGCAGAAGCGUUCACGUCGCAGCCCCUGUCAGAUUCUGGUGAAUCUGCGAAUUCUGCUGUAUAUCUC

variants of: B1; assay: self-cleavage, relative activity (ratio to wild type); higher = more cleavage; in vitro, sequencing
Please use Met whenever self-cleavage is not below 0.3, and Not met whenever it is.

# bool: self-cleavage of U41C A77U >= 0.3
Met

Further cases:
Threshold query (self-cleavage >= 0.3) on A28C U54G
Met

Next: G36A C39G
Not met

Item: A3U C34U
Met
